test-details: Solubility test
Format: physicochemical
experimental-parameters: ethyl lactate, organic solvent or mixture, thermodynamic from solid; 0.5 mol/L at 20° C., ultrasonic wave 3 hours; read-out: Solubility in Ethyl lactate

# compound, solubility at 3 h
data = [
    ("COCCN1C(=O)c2cccc3cccc(c23)C1=O [compound 3, reference compound]", "< 500 mM"),
]

----------
test-details: Solubility test
Type: physicochemical
experimental-parameters: ethyl acetate, organic solvent or mixture, thermodynamic from solid; 0.5 mol/L at 20° C., ultrasonic wave 3 hours; read-out: Solubility in Ethyl acetate
property-label: solubility at 3 h

# compound, result
data = [
    ("COCCN1C(=O)c2cccc3cccc(c23)C1=O [compound 3, reference compound]", "< 500 mM"),
]

----------
test-details: Evaluation 1 of curability (coating layer with trifunctional acrylate, UV exposure, no hydrogen donor)
experimental-parameters: Exposure 400 mJ, nitrogen
Excerpt: Using a trifunctional acrylate (product name; M-305, manufactured by Toagosei Co., Ltd.) as polyfunctional monomers, the compounds 1 to 14, the comparative compounds 2 and 3 and a photoradical generator Irgacure 907 (product name; manufactured by Ciba Specialty Chemicals) were mixed with each polyfunctional monomer to prepare each THF solution of each photoradical generator. […]
Documented Reaction rate (decrement of double bond) across a set of molecules

# molecule, Reaction rate (decrement of double bond)
data = [
    ("O=c1c2ccccc2c2ccccc2c(=O)n1CCOCCOCCOCCn1c(=O)c2ccccc2c2ccccc2c1=O [Compound 11]", "42.3%"),
    ("CC(=O)OCCOCCn1c(=O)c2ccccc2c2ccccc2c1=O [Compound 3]", "0.8%"),
    ("O=c1c2ccccc2c2ccccc2c(=O)n1CCOCCOCCOCCOCCOCCn1c(=O)c2ccccc2c2ccccc2c1=O [Compound 12]", "24.8%"),
    ("CN(C)CCn1c(=O)c2ccccc2c2ccccc2c1=O [Compound 13]", "4.2%"),
]

----------
test-details: Evaluation 2 of curability (triethanolamine added as hydrogen donor)
experimental-parameters: Exposure 400 mJ
Documented Reaction rate (decrement of double bond) across a set of compounds
property-label: Reaction rate (decrement of double bond) (%)

# compound, unit-of-measure, recorded-number
records = [
    ("CC(=O)OCCn1c(=O)c2ccccc2c2ccccc2c1=O", "%", 41.1),
    ("O=c1c2ccccc2c2ccccc2c(=O)n1CCOCCn1c(=O)c2ccccc2c2ccccc2c1=O", "%", 45.9),
    ("CC(=O)OCCOCCOCCn1c(=O)c2ccccc2c2ccccc2c1=O", "%", 47.9),
    ("C=CC(=O)OCCOCCOCCn1c(=O)c2ccccc2c2ccccc2c1=O", "%", 34.4),
    ("O=c1c2ccccc2c2ccccc2c(=O)n1CCOCCOCCOCCOCCOCCn1c(=O)c2ccccc2c2ccccc2c1=O", "%", 40.6),
    ("C=CC(=O)OCCOCCn1c(=O)c2ccccc2c2ccccc2c1=O", "%", 51.4),
    ("CC(=O)OCC(C(C)C)n1c(=O)c2ccccc2c2ccccc2c1=O (stereo not shown)", "%", 40.0),
    ("C=CC(=O)OCCN1C(=O)C2=C(CCCC2)C1=O [compound 2, reference compound]", "%", 8.6),
    ("COCCN1C(=O)c2cccc3cccc(c23)C1=O [compound 3, reference compound]", "%", 11.1),
    ("C=CC(=O)OCCn1c(=O)c2ccccc2c2ccccc2c1=O", "%", 41.3),
    ("O=c1c2ccccc2c2ccccc2c(=O)n1CCOCCOCCOCCn1c(=O)c2ccccc2c2ccccc2c1=O", "%", 29.4),
    ("CC(=O)OCCOCCn1c(=O)c2ccccc2c2ccccc2c1=O", "%", 43.7),
    ("C=COCCCn1c(=O)c2ccccc2c2ccccc2c1=O", "%", 41.0),
    ("CN(C)CCn1c(=O)c2ccccc2c2ccccc2c1=O", "%", 24.8),
    ("COCCn1c(=O)c2ccccc2c2ccccc2c1=O", "%", 36.6),
    ("CC(=O)OCCN(CCn1c(=O)c2ccccc2c2ccccc2c1=O)C(C)=O", "%", 30.5),
]

----------
test-details: Solubility test
Assay type: physicochemical
experimental-parameters: propylene glycol monoethyl ether acetate, organic solvent or mixture, thermodynamic from solid; 0.5 mol/L at 20° C., ultrasonic wave 3 hours; read-out: Solubility in Propylene glycol monoethyl ether acetate

# compound, solubility at 3 h
measured = [
    ("COCCN1C(=O)c2cccc3cccc(c23)C1=O [compound 3, reference compound]", "< 500 mM"),
]

----------
Documented 5% heat decomposition temperature across a set of molecules
test-details: Evaluation of heat resistance (thermogravimetry, 5% reduction in weight temperature)
Format: physicochemical
experimental-parameters: temperature rise rate 10° C./min, nitrogen atmosphere
property-label: 5% heat decomposition temperature (°C)

# molecule, property-label, recorded-number
measured = [
    ("C=CC(=O)OCCOCCn1c(=O)c2ccccc2c2ccccc2c1=O", "5% heat decomposition temperature", 357),
    ("C=CC(=O)OCCn1c(=O)c2ccccc2c2ccccc2c1=O", "5% heat decomposition temperature", 233),
    ("CSc1ccc(C(=O)C(C)(C)N2CCOCC2)cc1 [Irg907, reference compound]", "5% heat decomposition temperature", 207),
    ("CC(=O)OCCOCCn1c(=O)c2ccccc2c2ccccc2c1=O", "5% heat decomposition temperature", 260),
    ("O=c1c2ccccc2c2ccccc2c(=O)n1CCOCCOCCOCCOCCOCCn1c(=O)c2ccccc2c2ccccc2c1=O", "5% heat decomposition temperature", 276),
    ("CC(=O)OCCn1c(=O)c2ccccc2c2ccccc2c1=O", "5% heat decomposition temperature", 240),
    ("COCCn1c(=O)c2ccccc2c2ccccc2c1=O", "5% heat decomposition temperature", 224),
    ("CC(=O)OCCN(CCn1c(=O)c2ccccc2c2ccccc2c1=O)C(C)=O", "5% heat decomposition temperature", 234),
    ("CC(=O)OCC(C(C)C)n1c(=O)c2ccccc2c2ccccc2c1=O (stereo not drawn)", "5% heat decomposition temperature", 208),
]

----------
test-details: Evaluation of heat resistance (thermogravimetry, 5% reduction in weight temperature)
Type: physicochemical
experimental-parameters: temperature rise rate 10° C./min, nitrogen atmosphere
Documented 5% heat decomposition temperature across a set of compounds
property-label: 5% heat decomposition temperature (°C)

# compound, recorded-number
rows = [
    ("C=CC(=O)OCCOCCOCCn1c(=O)c2ccccc2c2ccccc2c1=O", 295),
    ("CC(=O)OCCOCCOCCn1c(=O)c2ccccc2c2ccccc2c1=O", 257),
    ("O=c1c2ccccc2c2ccccc2c(=O)n1CCOCCn1c(=O)c2ccccc2c2ccccc2c1=O", 204),
    ("C=COCCCn1c(=O)c2ccccc2c2ccccc2c1=O", 213),
    ("COCCn1c(=O)c2cc([N+](=O)[O-])ccc2c2ccc([N+](=O)[O-])cc2c1=O", 280),
    ("CN(C)CCn1c(=O)c2ccccc2c2ccccc2c1=O", 177),
    ("C=CC(=O)OCCN1C(=O)C2=C(CCCC2)C1=O [compound 2, reference compound]", 184),
    ("COCCN1C(=O)c2cccc3cccc(c23)C1=O [compound 3, reference compound]", 229),
    ("O=c1c2ccccc2c2ccccc2c(=O)n1CCOCCOCCOCCn1c(=O)c2ccccc2c2ccccc2c1=O", 240),
]

----------
test-details: Evaluation 1 of curability (coating layer with trifunctional acrylate, UV exposure, no hydrogen donor)
experimental-parameters: Exposure 400 mJ, nitrogen
Documented Reaction rate (decrement of double bond) across a set of compounds
property-label: Reaction rate (decrement of double bond) (%)

# compound, property-label, unit-of-measure, recorded-number
data = [
    ("CC(=O)OCCOCCOCCn1c(=O)c2ccccc2c2ccccc2c1=O [Compound 6]", "Reaction rate (decrement of double bond)", "%", 14.2),
    ("COCCN1C(=O)c2cccc3cccc(c23)C1=O [compound 3, reference compound]", "Reaction rate (decrement of double bond)", "%", 26.6),
    ("CC(=O)OCC(C(C)C)n1c(=O)c2ccccc2c2ccccc2c1=O (stereo not drawn) [Compound 4]", "Reaction rate (decrement of double bond)", "%", 0.9),
    ("C=CC(=O)OCCn1c(=O)c2ccccc2c2ccccc2c1=O [Compound 7]", "Reaction rate (decrement of double bond)", "%", 7.7),
    ("O=c1c2ccccc2c2ccccc2c(=O)n1CCOCCn1c(=O)c2ccccc2c2ccccc2c1=O [Compound 10]", "Reaction rate (decrement of double bond)", "%", 17.4),
    ("CC(=O)OCCn1c(=O)c2ccccc2c2ccccc2c1=O [Compound 2]", "Reaction rate (decrement of double bond)", "%", 1.2),
    ("COCCn1c(=O)c2ccccc2c2ccccc2c1=O [Compound 1]", "Reaction rate (decrement of double bond)", "%", 1.1),
    ("CSc1ccc(C(=O)C(C)(C)N2CCOCC2)cc1 [Irg907, reference compound]", "Reaction rate (decrement of double bond)", "%", 50.6),
    ("C=CC(=O)OCCN1C(=O)C2=C(CCCC2)C1=O [compound 2, reference compound]", "Reaction rate (decrement of double bond)", "%", 2.0),
]

Numbers sourced from patent US7528205B2.
